Entry source: patent US9822124B2

Heads up, these molecules all have IC50 values measured for Pim-3 (Homo sapiens (Human), UniProt Q86V86).

Consider the following illustrative entries.
Task item: Which IC50 is listed for C[C@H]1CN(c2ccncc2NC(=O)c2ccc3occ(C4CCOCC4)c3n2)C[C@@H](N)[C@@H]1O ?
Reply: ≤ 0.01 µM

Task item: I would be grateful if you could share the reported IC50 for CC(C)c1coc2ccc(C(=O)Nc3cnccc3N3C[C@@H](N)[C@H](O)[C@@H](C)C3)nc12 .
Reply: ≤ 0.01 µM

Task item: Look up IC50 for this molecule: COc1cncc(-c2coc3ccc(C(=O)Nc4cnccc4N4C[C@H](C)C[C@H](N)C4)nc23)c1
Reply: ≤ 0.01 µM

Look up IC50 for the entries below, preserving their order.
1. C[C@@H]1C[C@H](N)CN(c2ccncc2NC(=O)c2ccc3cc(C4CC4)oc3n2)C1
2. C[C@@H]1C[C@H](N)CN(c2ccncc2NC(=O)c2ccc3occ(-c4cncc(C#N)c4)c3n2)C1
3. C[C@@H]1C[C@H](N)CN(c2ccncc2NC(=O)c2ccc3occ(-c4cncnc4)c3n2)C1
4. C[C@@H]1C[C@H](N)CN(c2ccncc2NC(=O)c2ccc3ccn(C4CCC4)c3n2)C1

Reply:
1. ≤ 0.01 µM
2. 0.01 to 0.05 µM
3. > 0.04 µM
4. ≤ 0.01 µM
